assay: Tissue distribution test of Compound 35 and Compound 58 (plasma and brain); format: in vivo; conditions: mouse, brain / plasma, oral; intragastric 2 mg/kg, 4 h after administration, male CD-1 mice; read-out: Brain to Blood Ratio

>  <MOLECULE>
CCc1cc(=O)n2cc(N3C(=S)N(c4ccc(C#N)c(Cl)c4)C(=O)C3(C)C)cc(F)c2n1 [Compound 58]

>  <Kp at 4 h>
0.0322

$$$$
>  <MOLECULE>
CCc1cc(=O)n2cc(N3C(=S)N(c4ccc(C#N)c(C(F)(F)F)c4)C(=O)C3(C)C)cc(F)c2n1 [Compound 35]

>  <Kp at 4 h>
0.0742

$$$$

Ref: patent US11866433B2
